Assay: LNP encapsulation efficiency (Quant-it Ribogreen)
Type: physicochemical
Conditions: mRNA LNP, cationic lipid/DSPC/cholesterol/PEG-lipid 50:10:38.5:1.5
measured quantity: Encapsulation efficiency (%)

Guide cases for Encapsulation efficiency (%), answers given:
| compound | Encapsulation efficiency (%) |
| --- | --- |
| CCCCCCCCC(CCCCCC)COC(=O)CCCCCNC(=O)C(CCCCC)N(CCCCN1CCCC1)C(=O)CCCCCC(=O)OCC(CCCCCC)CCCCCCCC (stereo not drawn) [Compound A46] | 94.31 |
| CCCCCCCCCCOCCCCCCCC(=O)N(CCCN(C)C)C(CCCCCCCC)C(=O)NCCCCCCCC (stereo not drawn) [Compound A42] | 95.23 |
| CCCCCCC(CCCCCC)OC(=O)CCCCCCCCCNC(=O)C(CCCCCCCCCC(=O)OC(CCCCCC)CCCCCC)N(CCCN(C)C)C(=O)CCCN(C)C (stereo not drawn) [Compound E6] | 96.54 |

A. CCCCCCCCCCCNC(=O)C(CCCCCCCC)N(CCN(C)CCN(C(=O)CCCCCCCCCC(=O)OC(CCCCCC)CCCCCC)C(CCCCCCCC)C(=O)NCCCCCCCCCC)C(=O)CCCCCCCCCC(=O)OC(CCCCCC)CCCCCC (stereo not drawn) [Compound D4]
B. CCCCCCCCNC(=O)C(CCCCCCC)N(CCCN(C)C)C(=O)CCCCCCC(=O)OC(CCCCCCCC)CCCCCCCC (stereo not drawn) [Compound A30]
C. CCCCCCCCC(C(=O)NCCCCCCCCCC(=O)OC(CCCCCC)CCCCCC)N(CCCN1CCCC1)C(=O)CCCCCCCCCC(=O)OC(CCCCCC)CCCCCC (stereo not drawn) [Compound A1]
Query: Please list these in order of increasing Encapsulation efficiency (%). Thank you! Give the order by naming the labels one after another as requested.
Reply: A, C, B
(A: 43.24%, C: 67.41%, B: 96.65%)

FYI, the data here is from patent US20260078099A1.
